Source of measurements: paper PMC9050923

- Test system: SKBR-3
- protocol.notes: MTT assay, SKBR-3 breast cancer cells
- Format: cell-based
- test.context: Homo sapiens, SK-BR-3; 10 μM, 72 h after the treatment, MTT, mean of three independent experiments; read-out: Percentage of cell viability SKBR-3
Label key: true (1) means viability at 10 µM under 80%; false (0) means viability at 10 µM of 80% or more.

[
  {
    "compound": "Nc1nc(Nc2ccc(Cl)cc2)nc(-c2ccc(F)cc2)n1 [Compound 26]",
    "assigned.class": "false (0)"
  },
  {
    "compound": "COc1ccc(Nc2nc(N)nc(-c3ccc(F)cc3)n2)cc1 [Compound 30]",
    "assigned.class": "false (0)"
  },
  {
    "compound": "Nc1nc(Nc2ccc(F)cc2)nc(-c2ccc(F)cc2)n1 [Compound 23]",
    "assigned.class": "false (0)"
  },
  {
    "compound": "Nc1nc(Nc2ccc(Br)cc2)nc(-c2cccs2)n1 [Compound 120]",
    "assigned.class": "false (0)"
  },
  {
    "compound": "Nc1nc(Nc2ccccc2Cl)nc(-c2ccc(Br)cc2)n1 [Compound 48]",
    "assigned.class": "false (0)"
  },
  {
    "compound": "Nc1nc(Nc2cccnc2)nc(-c2ccc(Cl)cc2)n1 [Compound 45]",
    "assigned.class": "true (1)"
  },
  {
    "compound": "COc1ccc(-c2nc(N)nc(Nc3cccc(C)c3)n2)cc1 [Compound 77]",
    "assigned.class": "true (1)"
  },
  {
    "compound": "Nc1nc(Nc2ccccc2F)nc(-c2ccc(C(F)(F)F)cc2)n1 [Compound 83]",
    "assigned.class": "true (1)"
  },
  {
    "compound": "Cc1ccc(Nc2nc(N)nc(-c3cccc(C)c3)n2)cc1 [Compound 56]",
    "assigned.class": "true (1)"
  }
]

###

- Test system: SKBR-3
- protocol.notes: MTT assay, SKBR-3 breast cancer cells
- Format: cell-based
- test.context: Homo sapiens, SK-BR-3; 10 μM, 72 h after the treatment, MTT, mean of three independent experiments; read-out: Percentage of cell viability SKBR-3
- Description: The prepared compounds 1–126 were tested on three breast cancer cell lines namely, MDA-MB231, SKBR-3 and MCF-7 using MTT assay. SKBR-3 and MCF-7 cell lines are estrogen and progesterone hormone positive cell lines often used as a model for the hormone therapy.[18] […] Initially, all the prepared compounds 1–126 were tested on these three cancer cell lines at the screening concentration (10 μM) and percentage of cell viability was calculated 72 h after the treatment (Table 1). […]
measure.name: viability at 10 µM (%)

[
  {
    "compound": "COc1ccccc1Nc1nc(N)nc(-c2ccc(F)cc2)n1 [Compound 29]",
    "measure.name": "viability at 10 µM",
    "observed.result": 81
  },
  {
    "compound": "COc1ccc(Nc2nc(N)nc(-c3cccs3)n2)cc1 [Compound 123]",
    "measure.name": "viability at 10 µM",
    "observed.result": 88
  },
  {
    "compound": "Nc1nc(Nc2cccnc2)nc(-c2cccs2)n1 [Compound 126]",
    "measure.name": "viability at 10 µM",
    "observed.result": 91
  },
  {
    "compound": "Nc1nc(Nc2ccc(OC(F)(F)F)cc2)nc(-c2cccs2)n1 [Compound 124]",
    "measure.name": "viability at 10 µM",
    "observed.result": 86
  },
  {
    "compound": "Nc1nc(Nc2ccc(Cl)cc2)nc(-c2ccc(Br)cc2)n1 [Compound 49]",
    "measure.name": "viability at 10 µM",
    "observed.result": 100
  },
  {
    "compound": "Nc1nc(Nc2ccccc2F)nc(-c2ccc(Br)cc2)n1 [Compound 46]",
    "measure.name": "viability at 10 µM",
    "observed.result": 91
  },
  {
    "compound": "Cc1cccc(-c2nc(N)nc(Nc3ccc(C(C)C)cc3)n2)c1 [Compound 59]",
    "measure.name": "viability at 10 µM",
    "observed.result": 93
  },
  {
    "compound": "COc1ccccc1Nc1nc(N)nc(-c2ccccc2)n1 [Compound 8]",
    "measure.name": "viability at 10 µM",
    "observed.result": 97
  },
  {
    "compound": "Nc1nc(Nc2ccccc2Cl)nc(-c2ccccc2)n1 [Compound 4]",
    "measure.name": "viability at 10 µM",
    "observed.result": 88
  },
  {
    "compound": "Nc1nc(Nc2ccc(F)cc2)nc(-c2cccs2)n1 [Compound 117]",
    "measure.name": "viability at 10 µM",
    "observed.result": 86
  },
  {
    "compound": "Nc1nc(Nc2ccccc2Cl)nc(-c2ccc(Cl)cc2)n1 [Compound 37]",
    "measure.name": "viability at 10 µM",
    "observed.result": 89
  },
  {
    "compound": "Nc1nc(Nc2ccc(Br)cc2)nc(-c2ccc(Cl)cc2)n1 [Compound 40]",
    "measure.name": "viability at 10 µM",
    "observed.result": 100
  },
  {
    "compound": "Nc1nc(Nc2ccccc2)nc(-c2cccs2)n1 [Compound 115]",
    "measure.name": "viability at 10 µM",
    "observed.result": 87
  },
  {
    "compound": "Cc1ccc(-c2nc(N)nc(Nc3ccc(C(C)C)cc3)n2)cc1 [Compound 68]",
    "measure.name": "viability at 10 µM",
    "observed.result": 91
  },
  {
    "compound": "Nc1nc(Nc2ccccc2F)nc(-c2cccs2)n1 [Compound 116]",
    "measure.name": "viability at 10 µM",
    "observed.result": 78
  },
  {
    "compound": "Nc1nc(Nc2ccc(F)cc2)nc(-c2ccc(OC(F)(F)F)cc2)n1 [Compound 91]",
    "measure.name": "viability at 10 µM",
    "observed.result": 86
  },
  {
    "compound": "COc1ccc(-c2nc(N)nc(Nc3ccccc3Cl)n2)cc1 [Compound 73]",
    "measure.name": "viability at 10 µM",
    "observed.result": 47
  },
  {
    "compound": "Nc1nc(Nc2ccc(F)cc2)nc(-c2ccc(Br)cc2)n1 [Compound 47]",
    "measure.name": "viability at 10 µM",
    "observed.result": 98
  },
  {
    "compound": "Nc1nc(Nc2ccc(OC(F)(F)F)cc2)nc(-c2ccccc2)n1 [Compound 10]",
    "measure.name": "viability at 10 µM",
    "observed.result": 86
  },
  {
    "compound": "Nc1nc(Nc2ccc(Br)cc2)nc(-c2ccc(F)cc2)n1 [Compound 27]",
    "measure.name": "viability at 10 µM",
    "observed.result": 100
  }
]

###

- System: SKBR-3
- protocol.notes: MTT assay, SKBR-3 breast cancer cells
- Format: cell-based
- test.context: Homo sapiens, SK-BR-3; 10 μM, 72 h after the treatment, MTT, mean of three independent experiments; read-out: Percentage of cell viability SKBR-3

[
  {
    "molecular.string": "Nc1nc(Nc2ccc(Br)cc2)nc(-c2ccc(OCc3ccccc3)cc2)n1",
    "viability at 10 µM": "93%"
  },
  {
    "molecular.string": "COc1ccccc1Nc1nc(N)nc(-c2cccs2)n1",
    "viability at 10 µM": "97%"
  },
  {
    "molecular.string": "CC(C)c1ccc(Nc2nc(N)nc(-c3ccccc3)n2)cc1",
    "viability at 10 µM": "86%"
  },
  {
    "molecular.string": "COc1ccc(Nc2nc(N)nc(-c3cccc(F)c3)n2)cc1",
    "viability at 10 µM": "74%"
  },
  {
    "molecular.string": "Cc1cccc(-c2nc(N)nc(Nc3ccc(Cl)cc3)n2)c1",
    "viability at 10 µM": "93%"
  },
  {
    "molecular.string": "Nc1nc(Nc2ccccc2Cl)nc(-c2ccc(OC(F)(F)F)cc2)n1",
    "viability at 10 µM": "86%"
  },
  {
    "molecular.string": "Cc1ccc(Nc2nc(N)nc(-c3ccccc3)n2)cc1",
    "viability at 10 µM": "87%"
  },
  {
    "molecular.string": "Cc1ccc(Nc2nc(N)nc(-c3ccc(C(F)(F)F)cc3)n2)cc1",
    "viability at 10 µM": "95%"
  },
  {
    "molecular.string": "Nc1nc(Nc2ccc(OC(F)(F)F)cc2)nc(-c2ccc(F)cc2)n1",
    "viability at 10 µM": "92%"
  }
]

###

The reader will find reported GI50 values listed item by item below.
- Tested on: MDA-MB231
- protocol.notes: MTT assay, MDA-MB231 breast cancer cells
- Assay type: cell-based
- test.context: Homo sapiens, MDA-MB-231; −log[GI50], MDA-MB231; read-out: Experimental pGI50 (converted)
- Procedure: The prepared compounds 1–126 were tested on three breast cancer cell lines namely, MDA-MB231, SKBR-3 and MCF-7 using MTT assay. SKBR-3 and MCF-7 cell lines are estrogen and progesterone hormone positive cell lines often used as a model for the hormone therapy.[18] […] Initially, all the prepared compounds 1–126 were tested on these three cancer cell lines at the screening concentration (10 μM) and percentage of cell viability was calculated 72 h after the treatment (Table 1). […]

[
  {
    "compound": "COc1ccccc1Nc1nc(N)nc(-c2ccc(OC(F)(F)F)cc2)n1 [Compound 95]",
    "GI50 (µM)": 12.9
  },
  {
    "compound": "COc1ccc(-c2nc(N)nc(Nc3cccc(C)c3)n2)cc1 [Compound 77]",
    "GI50 (µM)": 0.955
  },
  {
    "compound": "COc1ccc(Nc2nc(N)nc(-c3ccc(OC)cc3)n2)cc1 [Compound 71]",
    "GI50 (µM)": 14.1
  },
  {
    "compound": "Nc1nc(Nc2ccccc2)nc(-c2ccc(OCc3ccccc3)cc2)n1 [Compound 110]",
    "GI50 (µM)": 13.5
  },
  {
    "compound": "COc1ccc(-c2nc(N)nc(Nc3ccccc3Cl)n2)cc1 [Compound 73]",
    "GI50 (µM)": 0.229
  },
  {
    "compound": "CN(C)c1ccc(-c2nc(N)nc(Nc3ccccc3F)n2)cc1 [Compound 101]",
    "GI50 (µM)": 0.0603
  },
  {
    "compound": "CN(C)c1ccc(-c2nc(N)nc(Nc3ccccc3)n2)cc1 [Compound 100]",
    "GI50 (µM)": 0.363
  },
  {
    "compound": "Cc1ccc(Nc2nc(N)nc(-c3cccs3)n2)cc1 [Compound 121]",
    "GI50 (µM)": 13.8
  },
  {
    "compound": "Cc1ccc(-c2nc(N)nc(Nc3ccc(F)cc3)n2)cc1 [Compound 62]",
    "GI50 (µM)": 10.7
  }
]
